# Tested on: CCRF-CEM leukemia
# Experiment: NCI tumour cell line growth inhibition, 48 h
Assignment: determine reported TGI for the given molecules.

Look over these answered cases.
{"Molecule": "O=C(N=c1nc(NC(=O)c2ccccc2)ss1)c1ccccc1", "TGI": "> 100 µM"}
{"Molecule": "CC[C@H](C)[C@H](NC(=O)[C@H]1CCCCN1C)C(=O)N(C)[C@H](C[C@@H](OC(C)=O)c1cccc(C(=O)N[C@@H](Cc2ccccc2)C[C@H](C)C(=O)O)n1)C(C)C", "TGI": "> 25 µM"}
{"Molecule": "CCCc1nc(Cl)c(Cl)c(Cl)n1", "TGI": "> 44.2 µM"}

For the 2 molecules below, give their TGI values.
1. O=C(CC(C(=O)c1ccsc1)c1ccsc1)c1ccsc1 (stereo unspecified)
2. COc1ccc(C2C(C#N)=C(N)Oc3c2sc2c(Br)cccc32)cc1 (stereo unspecified)

1. > 100 µM
2. 7.02 µM

Note down TGI recorded for `O=C1c2cccc(O)c2C(=O)c2c(O)cccc21`
> 100 µM

----------
# System: 786-0 renal
# Experiment: NCI tumour cell line growth inhibition, 48 h
Assignment: determine reported TGI for the given compounds.

{"Compound": "CC(=O)NNc1nc(C)c(C(=O)NNC(=O)C(=O)Nc2c([N+](=O)[O-])ccc(C)c2C)s1", "Target of assay": "786-0 renal", "TGI": "> 100 µM"}
{"Compound": "Fc1ccc(-c2nn3ccccc3c2-c2ccncc2)cc1", "Target of assay": "786-0 renal", "TGI": "> 25 µM"}

For the 4 compounds below, give their TGI values.
1. OCCCCn1cc(Cn2ncc3c(NCc4ccccc4)ncnc32)nn1
2. CCCc1nc(Cl)c(Cl)c(Cl)n1
3. CC1(C)Cc2c(oc3ncnc(N)c23)CS1
4. COc1ccc(C(=O)c2cc3c(N)c(C(=O)Nc4cccc(Br)c4C)sc3nc2C)cc1

1. > 100 µM
2. > 31.6 µM
3. > 100 µM
4. > 100 µM

For the 5 compounds below, give their TGI values.
1. O=C(Nc1ccc(Cl)cc1)c1cc([N+](=O)[O-])ccc1O
2. O=[N+]([O-])c1ccc2sc(/C=N/c3ccccn3)cc2c1
3. NC(CCP(=O)(O)O)C(=O)O (stereo not drawn)
4. O=C1c2cccc(O)c2C(=O)c2c(O)cccc21
5. O=C(CCC(=O)Nc1cccc(C(F)(F)F)c1)CC(=O)c1ccc2ccccc2c1

1: > 46.8 µM; 2: > 100 µM; 3: > 100 µM; 4: > 100 µM; 5: > 100 µM

For the 2 compounds below, give their TGI values.
1. O=C(CC(C(=O)c1ccsc1)c1ccsc1)c1ccsc1 (stereo not drawn)
2. COc1ccc(/C=C/C(=O)c2c(-c3ccccc3)nn(C)c(=O)c2N2CCOCC2)cc1

1. > 100 µM
2. > 100 µM

----------
# Tested on: OVCAR-3 ovarian
# Experiment: NCI tumour cell line growth inhibition, 48 h
Assignment: determine reported TGI for the given molecules.
Give bare numbers, in µM.

Look over these answered cases.
{"Compound string": "S=C(N/N=C/c1ccccn1)N1CC2CCC(CC2)C1", "Measurement unit": "µM", "TGI": 13.9}
{"Compound string": "COc1cc2c(c(OC)c1OC)-c1ccc(SC)c(=O)cc1[C@@H](NC(=O)C(F)(F)F)CC2", "Measurement unit": "µM", "TGI": 1.3}

// below: TGI requested for another molecule
Note down TGI recorded for `C[n+]1c2ccccc2c(CNCC(=O)O)c2ccccc21`
6.2

----------
Assignment: determine reported TGI for the given molecules.
# System: MCF7 breast
# Experiment: NCI tumour cell line growth inhibition, 48 h

{"Molecule": "C1CSCCSCSCCS1", "Quantity measured": "TGI", "Test result": "> 100 µM"}

For the 8 molecules below, give their TGI values.
1. CC(=O)OCC1OC(NC(=O)N(CCCl)N=O)C(OC(C)=O)C(OC(C)=O)C1OC(C)=O (stereo not given)
2. O=C(Nc1cc(Cl)cc(Cl)c1)c1cccc(NC2=C(Cl)C(=O)N(Cc3ccccc3)C2=O)c1
3. C=CCN1C[C@H](C)N([C@H](c2ccc(C(=O)N(CC)CC)cc2)c2cccc(OC)c2)C[C@H]1C
4. O=[N+]([O-])c1ccc2sc(/C=N/c3ccccn3)cc2c1
5. O=C1NC2(CCCCC2)C(=O)N1CCN(CCCl)CCCl
6. O=C1c2ccccc2C(=O)c2c(NC(=O)C3CC3)ccc(NC(=O)C3CC3)c21
7. COc1cc([N+](=O)[O-])c(S(=O)(=O)O)cc1-n1nc(C(=O)Nc2ccccc2)n[n+]1-c1cc(S(=O)(=O)[O-])c([N+](=O)[O-])cc1OC
8. Nc1ncc(C=O)c(NCC2(CO)CCC2)n1

> 100 µM
> 100 µM
> 100 µM
> 100 µM
> 250 µM
> 100 µM
> 100 µM
> 100 µM

Note down TGI recorded for `Cn1c(=O)c(Oc2ccc(F)cc2F)cc2cnc(N[C@@H]3CCOC3)nc21`
> 25 µM

----------
Assignment: determine reported TGI for the given compounds.
# Tested on: HOP-62 NSCLC
# Experiment: NCI tumour cell line growth inhibition, 48 h

{"Compound": "CS(=O)(=O)OCCCSCCSCCCOS(C)(=O)=O", "Target of assay": "HOP-62 NSCLC", "Quantity measured": "TGI", "Test result": "> 100 µM"}

For the 2 compounds below, give their TGI values.
1. C[C@]12CC[C@H](O)CC1=CC[C@@H]1C2CC[C@]2(C)C(=O)NC(=O)CC12 (stereo partly drawn)
2. CC/C(Cl)=N\OC(=O)Nc1ccc(OC)c(C)c1

> 100 µM
> 82.5 µM

----------
# Test system: A498 renal
# Experiment: NCI tumour cell line growth inhibition, 48 h
Quantity measured: TGI

Look over these answered cases.
{"Compound": "CCCCNC(=S)OCCC(C)CCCC(C)C (configuration not stated)", "TGI": "> 100 µM"}
{"Compound": "COc1ccc(O)cc1C(O)c1ccccc1 (configuration not stated)", "TGI": "> 100 µM"}

For the 5 compounds below, give their TGI values.
1. O=S(=O)(O)c1ccc2c(N=Nc3ccc(S(=O)(=O)O)c4ccccc34)c(O)c(S(=O)(=O)O)cc2c1
2. C=CCOCn1cc(F)c(=O)[nH]c1=O
3. C[N+](C)(C)c1cc[c]([Sn]([c]2ccc([N+](C)(C)C)cc2)([c]2ccc([N+](C)(C)C)cc2)[c]2ccc([N+](C)(C)C)cc2)cc1
4. COc1cc2cc3c4c(cc(OC)c(OC)c4c2cc1OC)CCN3C
5. c1ccc(Oc2ccc(Nc3ncc(-c4ccccc4)o3)cc2)cc1

> 100 µM
> 100 µM
> 100 µM
> 38.1 µM
> 25 µM

----------
Assignment: determine reported TGI for the given compounds.
# System: NCI-H23 lung
# Experiment: NCI tumour cell line growth inhibition, 48 h

Look over these answered cases.
{"Compound": "O=C1OCC(c2ccc(Cl)cc2)=C1Cl", "Test result": "54.6 µM"}
{"Compound": "CC(NC1=CC(=O)c2cccnc2C1=O)C(O)c1ccccc1 (stereo not drawn)", "Test result": "3.01 µM"}
{"Compound": "COc1cc([N+](=O)[O-])c(S(=O)(=O)O)cc1-n1nc(C(=O)Nc2ccccc2)n[n+]1-c1cc(S(=O)(=O)[O-])c([N+](=O)[O-])cc1OC", "Test result": "> 100 µM"}

For the 5 compounds below, give their TGI values.
1. COc1ccc(/C=C/C(=O)c2c(-c3ccccc3)nn(C)c(=O)c2N2CCOCC2)cc1
2. COc1c(I)c(OC)c2c(c1I)O[C@@H]1OCC[C@H]21
3. CCOC(=O)NN(C(=O)OCC)C(=C(C1=CCCCC1)N1CCOCC1)N(NC(=O)OCC)C(=O)OCC
4. CCNC1=C(NC(=O)c2ccccc2)C(=O)c2ccccc2C1=O
5. Cc1ccc(/C=C/C(=O)c2sc(-n3nc(-c4ccccc4)cc3-c3ccccc3)nc2C)cc1

1: > 100 µM; 2: > 100 µM; 3: > 100 µM; 4: > 100 µM; 5: > 100 µM

For the 4 compounds below, give their TGI values.
1. CCCCCCCCCCNCCSS(=O)(=O)O
2. O=C(Nc1ccc(Cl)cc1)c1cc([N+](=O)[O-])ccc1O
3. COc1ccc(CCNC(=O)c2ccccc2C2c3ccc(OCc4ccccc4)cc3Oc3cc(OCc4ccccc4)ccc32)cc1OC
4. CO[C@]12S[C@@H]3CCCC[C@@]31C(C)(C)C(=O)N2c1ccccc1

4.49 µM
6.66 µM
> 100 µM
> 100 µM

For the 2 compounds below, give their TGI values.
1. Nc1nc2c(-c3ccc([N+](=O)[O-])cc3)nnn2c2ccccc12
2. C[n+]1c2ccccc2c(CNCC(=O)O)c2ccccc21

1. > 100 µM
2. 24.8 µM
